Molecular target: Bursicon receptor (LGR2/rickets), Drosophila melanogaster
Assay: inhibition of bursicon-stimulated LGR2 cAMP signaling – cell-based, HEK293, CRE-luciferase, beta-gal normalized, dry powder, set 3, dose response (AID 743506)
Conditions: 4 h
The source made the active and inactive calls.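 Rule for the calls: active = compounds that block the bursicon-driven reporter signal with IC50 below 35000 nM; inactive = the rest.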
# valid calls are active, inactive; nothing else

>  <record.smiles>
C[C@H](CO)N1C[C@H](C)[C@H](CN(C)C(=O)Nc2ccccc2)OCCCC[C@H](C)Oc2ccc(NC(=O)C3CCCCC3)cc2C1=O

>  <assigned.category>
active

$$$$
>  <record.smiles>
C[C@H](CO)N1C[C@H](C)[C@H](CN(C)C(=O)Nc2ccc(F)cc2)OCCCC[C@H](C)Oc2ccc(NC(=O)C3CCCCC3)cc2C1=O

>  <assigned.category>
active

$$$$
>  <record.smiles>
COc1ccc(NC(=O)N(C)C[C@@H]2OCCCC[C@H](C)Oc3ccc(NC(=O)C4CCCCC4)cc3C(=O)N([C@H](C)CO)C[C@@H]2C)cc1

>  <assigned.category>
active

$$$$

// query Record lookup: outcome of this test for C[C@H](CO)N1C[C@H](C)[C@H](CN(C)C(=O)Nc2ccc3c(c2)OCO3)OCCCC[C@H](C)Oc2ccc(NC(=O)C3CCCCC3)cc2C1=O ?
// result active

// query // query: C[C@@H]1CCCCO[C@H](CN(C)C(=O)Nc2ccc(F)cc2)[C@H](C)CN([C@@H](C)CO)C(=O)c2cc(NC(=O)C3CCCCC3)ccc2O1
// result inactive
